Entries and their Neuritogenic effect, 3 µM NPY fragment (% of control)
molecular target: NCAM on rat hippocampal neurons (rat, UniProt P13596 20-858); assay: cell-based or functional assay
Sequence (P13596 20-858): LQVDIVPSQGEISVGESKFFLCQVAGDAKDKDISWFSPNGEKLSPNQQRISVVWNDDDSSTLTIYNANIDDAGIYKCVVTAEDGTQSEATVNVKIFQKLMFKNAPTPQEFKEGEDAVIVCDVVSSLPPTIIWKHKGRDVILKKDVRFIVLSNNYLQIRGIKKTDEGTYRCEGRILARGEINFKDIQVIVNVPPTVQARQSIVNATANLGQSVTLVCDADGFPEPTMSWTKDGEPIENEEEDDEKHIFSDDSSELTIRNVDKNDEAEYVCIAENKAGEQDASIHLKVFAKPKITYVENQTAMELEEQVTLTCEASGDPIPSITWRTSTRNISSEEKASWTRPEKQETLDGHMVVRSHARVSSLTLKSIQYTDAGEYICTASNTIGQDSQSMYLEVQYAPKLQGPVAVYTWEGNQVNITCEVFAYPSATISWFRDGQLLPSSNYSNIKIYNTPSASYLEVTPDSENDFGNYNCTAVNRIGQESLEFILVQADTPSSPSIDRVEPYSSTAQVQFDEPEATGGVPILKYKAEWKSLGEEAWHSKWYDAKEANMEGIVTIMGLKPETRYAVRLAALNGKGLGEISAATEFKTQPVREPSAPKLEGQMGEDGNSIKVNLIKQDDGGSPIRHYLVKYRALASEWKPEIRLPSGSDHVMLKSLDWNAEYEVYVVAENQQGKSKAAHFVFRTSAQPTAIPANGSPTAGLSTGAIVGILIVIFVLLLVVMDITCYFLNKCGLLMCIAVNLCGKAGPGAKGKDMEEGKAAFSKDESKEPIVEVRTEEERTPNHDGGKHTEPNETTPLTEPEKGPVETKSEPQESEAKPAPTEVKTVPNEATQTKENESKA
recorded metric: Neuritogenic effect, 3 µM NPY fragment (% of control)

[
  {
    "binder": "PAEDMARYYSALRHYINLITRQR [NPY13-35]",
    "test result": "305 % of control"
  },
  {
    "binder": "YSALRHYINLITRQR [NPY21-35]",
    "test result": "233 % of control"
  },
  {
    "binder": "YPSKPDNPGEDAPAEDMARY [NPY1-20]",
    "test result": "99.1 % of control"
  }
]
